Below, each of the compounds is paired with its reported logKi value.
Assay: Binding affinity to GABAA receptor
Set-up: unit not given here
Enter a number only.

Worked examples, 5 compounds total:
O=c1cc(-c2ccccc2O)oc2ccccc12: -0.678
O=c1cc(-c2cccc(O)c2)oc2ccc(Br)cc12: -0.22
COc1cccc(O)c1-c1cc(=O)c2c(O)c(OC)c(OC)c(OC)c2o1: -0.444
COc1c(O)cc(O)c2c(=O)cc(-c3ccccc3)oc12: 0.182
Cc1cccc(-c2cc(=O)c3cc(C)ccc3o2)c1: -0.682

So for "COc1c(O)cc2oc(-c3ccc(O)cc3)cc(=O)c2c1O" , the logged logKi turned out to be 0

Hello, the source for this data is ChEMBL document CHEMBL1141675, in case you need it.
